meta.source: PubChem BioAssay (NCATS)

Test system: CP256
testMethodNotes: qHTS profiling for inhibitors of Plasmodium falciparum proliferation (AID 504749); also: nearly all actives have a fitted effect of over 60% in size
experimentalContext: P. falciparum in erythrocytes, SYBR Green DNA, 72 h; series mostly up to 28.7 µM
Results filed as inconclusive are left out. The source made the active and inactive calls. Calls follow the shape of the dose curve; as a rule, active = well fitted inhibition curve with a large enough effect; inconclusive = small, poorly fitted or top-dose-only effect; inactive = flat fitted curve, though single readings scatter.
Returns: one label drawn from yes (1) = active, no (0) = inactive

Here are 3 molecules together with their reported answers.
O=C1O[C@H]([C@@H](O)CO)C(O)=C1O ... no (0)
O=C1NS(=O)(=O)c2ccccc21 ... no (0)
Nc1ccc(S(=O)(=O)NC(=O)c2ccccc2)cc1 ... no (0)

Task: Entry `CC1(C)[C@@H]2CC[C@@]1(C)C(=O)C2` : call = ?
Result: no (0)

Task: Input `NC1CCN(c2cccc(Cl)n2)CC1`
Result: no (0)

Task: Input `CC(=O)c1ccc2c(c1)N(CCCN(C)C)c1ccccc1S2`
Result: no (0)

Task: Input CCCCN(CCCC)CC(O)c1cc(Cl)cc2c1-c1ccc(Cl)cc1/C2=C/c1ccc(Cl)cc1 (stereo not drawn)
Result: yes (1)

Task: Input CC(CN1c2ccccc2Sc2ccccc21)N(C)C (stereo not drawn)
Result: no (0)

Task: Input `CC1(C)OC(=O)NC1=O`
Result: no (0)

Task: Input `C=Cc1c(C)c2cc3[nH]c(cc4nc(cc5nc(cc1[nH]2)C(C)=C5CCC(=O)O)C(CCC(=O)O)=C4C)c(C)c3C=C`
Result: no (0)

Task: Input `Nc1ccc(S(=O)(=O)Nc2ccccc2)cc1`
Result: no (0)

Task: Input `O=C(O)c1ccccn1`
Result: no (0)

Task: Input `CC(=O)Nc1ccc(/C=N/NC(N)=S)cc1`
Result: no (0)

====

Test system: PC26
testMethodNotes: qHTS profiling for inhibitors of Plasmodium falciparum proliferation (AID 504749); also: nearly all actives have a fitted effect of over 60% in size
experimentalContext: P. falciparum in erythrocytes, SYBR Green DNA, 72 h; series mostly up to 28.7 µM
Results filed as inconclusive are left out. Activity calls are given as the source filed them. Calls come from the whole dose curve; as a rule, active = well fitted inhibition curve with a large enough effect; inconclusive = small, poorly fitted or top-dose-only effect; inactive = flat fitted curve, though single readings scatter.
Returns: one label drawn from 1 for active, -1 for inactive

Here are 5 compounds together with their reported answers.
Cc1c(Cl)cccc1Nc1ccccc1C(=O)O ... -1
COc1cc2[nH]c(=O)[nH]c(=O)c2cc1OC ... -1
CCCc1c(OCCCCc2nn[nH]n2)ccc(C(C)=O)c1O ... -1
CC(O)CN(CCN(CC(C)O)CC(C)O)CC(C)O (configuration not stated) ... -1
C[C@]12C[C@H](O)[C@H]3[C@@H](CCC4=CC(=O)CC[C@@]43C)[C@@H]1CC[C@@H]2C(=O)CO ... -1

Task: Entry `[O-][n+]1cccc(CO)c1` : call = ?
Result: -1

Task: Input `NS(=O)(=O)c1cc2c(cc1Cl)NC(CSCc1ccccc1)=NS2(=O)=O`
Result: -1

Task: Input `CCCCN(CCCC)CCCOC(=O)c1ccc(N)cc1`
Result: -1

Task: Input `O=C(Oc1ccccc1C(=O)O)c1ccccc1O`
Result: -1

Task: Input `O=S(=O)(O)c1cc(I)c(O)c2ncccc12`
Result: -1

Task: Input `COc1ccccc1O`
Result: -1

Task: Input `NCC(=O)CCC(=O)O`
Result: -1

Task: Input `COc1ccc(Cl)cc1C(=O)NCCc1ccc(S(=O)(=O)NC(=O)NC2CCCCC2)cc1`
Result: -1

Task: Input `CCCCOc1cc(C(=O)OCCN(CC)CC)ccc1N`
Result: -1

Task: Input `CCCn1cnc2c1c(=O)n(CCCCC(C)=O)c(=O)n2C`
Result: -1

Task: Input `CCN(CC)CCNC(=O)c1c(C)[nH]c(/C=C2\C(=O)Nc3ccc(F)cc32)c1C`
Result: 1

Task: Input `CC(C)(C)C(=O)NCCCC(=O)O`
Result: -1
